The reported numbers originate from patent US20260232713A1.

assay: in vitro; conditions: human
Overview of recorded CC50 for various compounds
Your answer should be a plain number; it is taken to be in nM.

| compound | experimental value |
| --- | --- |
| C/C=C/[C@H]1O[C@@](O)([C@@H](C)[C@H](O)[C@H](C)[C@H]2OC(=O)/C(OC)=C/C(C)=C/[C@@H](C)[C@@H](O)[C@@H](C)[C@@H](OC(C)=O)[C@H](C)C/C(C)=C/C=C/[C@@H]2OC)C[C@@H](O[C@@H]2C[C@H](OC(C)=O)[C@@H](OC(N)=O)[C@H](C)O2)[C@@H]1C | 8 |

Asked: Look up and report measured CC50 for this entry: CC=CC1OC(O)(C(C)C(O)C(C)C2OC(=O)C(OC)=CC(C)=CC(C)C(O)C(C)C(O)C(C)CC(C)=CC=CC2OC)CC(OC2CC(O)C(OC(N)=O)C(C)O2)C1C (stereo not shown) [Compound 4, concanamycin B, reference compound]
Given back: 7
